Taken from patent US20250082624A1.

# TEST SUMMARY: Phase 1b MAD plasma pharmacokinetics, non-compartmental analysis
# Format: in vivo, human
# STATED CONDITIONS: human, plasma, po, 10 mg, Table 10: Cohort A, 10 mg QD oral, Day 7; mean ± S.D.; read-out: Tmax
# Method: Methods: All study procedures were approved by the IRB, and informed consent was obtained. […] Subjects were assessed for changes in vital signs, including maneuvers to induce lightheadedness, electrocardiograms, 24-hour electroencephalograms (EEG), and safety laboratory studies. […] Raw bioanalytical data were received from Nuvisan following analysis of plasma samples from each of four cohorts. PK parameters were calculated by noncompartmental analysis using standard equations. […]
RESULT TYPE: Tmax (min)

CC1(Cc2ccccc2)COc2cc(C(=O)N3CCCCC3)ccc21 (stereo not shown) [NTRX-07] : 48

---

# TEST SUMMARY: Phase 1b MAD plasma pharmacokinetics, non-compartmental analysis
# Type: in vivo, human
# STATED CONDITIONS: human, plasma, po, 90 mg, Cohort D AD patients, 90 mg QD oral, Day 1; mean ± SD; read-out: Average of AUC24 h
RESULT TYPE: AUC(0-t) (ng·h/mL)

CC1(Cc2ccccc2)COc2cc(C(=O)N3CCCCC3)ccc21 (stereo not shown) : 1560

---

# TEST SUMMARY: Phase 1b MAD plasma pharmacokinetics, non-compartmental analysis
# Type: in vivo, human
# STATED CONDITIONS: human, plasma, po, 30 mg, Cohort B healthy, 30 mg QD oral, Day 1; mean ± SD; read-out: Average of Cmax
RESULT TYPE: Cmax

CC1(Cc2ccccc2)COc2cc(C(=O)N3CCCCC3)ccc21 (stereo not shown) : 109 ng/mL

---

# TEST SUMMARY: Phase 1b MAD plasma pharmacokinetics, non-compartmental analysis
# Assay type: in vivo, human
# STATED CONDITIONS: human, plasma, po, 90 mg, Table 15: Cohort C, 90 mg QD oral, Day 7; mean ± S.D.; read-out: Vd/F
# Procedure: Methods: All study procedures were approved by the IRB, and informed consent was obtained. […] Subjects were assessed for changes in vital signs, including maneuvers to induce lightheadedness, electrocardiograms, 24-hour electroencephalograms (EEG), and safety laboratory studies. […] Raw bioanalytical data were received from Nuvisan following analysis of plasma samples from each of four cohorts. PK parameters were calculated by noncompartmental analysis using standard equations. […]
RESULT TYPE: Vd/F (L)

CC1(Cc2ccccc2)COc2cc(C(=O)N3CCCCC3)ccc21 (stereo not shown) : 568

---

# TEST SUMMARY: Phase 1b MAD plasma pharmacokinetics, non-compartmental analysis
# Assay type: in vivo, human
# STATED CONDITIONS: human, plasma, po, 360 mg SDD, Table 35 (interim): Cohort D (AD), 360 mg SDD (90 mg NTRX-07) QD oral, Day 7; mean ± S.D.; read-out: Cmax
RESULT TYPE: Cmax (ng/mL)

CC1(Cc2ccccc2)COc2cc(C(=O)N3CCCCC3)ccc21 (stereo not shown) : 240

---

# TEST SUMMARY: Phase 1b MAD plasma pharmacokinetics, non-compartmental analysis
# Format: in vivo, human
# STATED CONDITIONS: human, plasma, po, 10 mg, Cohort A healthy, 10 mg QD oral, Day 7; mean ± SD; read-out: Average of Tmax
RESULT TYPE: Tmax (min)

CC1(Cc2ccccc2)COc2cc(C(=O)N3CCCCC3)ccc21 (stereo not shown) : 48
